Data provenance: PubChem BioAssay AID1159580

Assay: chemical genetic growth profiling, strain panel (AID 1159580);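 also: tested at 20 µM; growth read once vehicle control cultures reached saturation at 30 °C; 1 = growth at the plate median or of vehicle wells; lower values mean less growth of the strain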
Details: S. cerevisiae deletion strains, growth OD, locus YLR403W, strain SFP1, active compounds read low
In all, about 5,500 compounds went through this assay and about 2,000 (36%) were called active. Inconclusive results (about 18%) are left out. This is one part of the list.
Simple rule here: normalized growth less than 0.8 is True, otherwise False.

| compound | assigned-class |
| --- | --- |
| Nc1ccccc1C(=O)N/N=C\c1cc(Cl)cc(Cl)c1O | True |
| N#CC(C#N)=NNc1ccc(C(F)(F)F)cc1 | True |
| CCOC(=O)C1C(c2ccc(Br)cc2)C(C(=O)OCC)C(O)(C(F)(F)F)NC1(O)C(F)(F)F (configuration not stated) | False |
| Fc1ccc(Nc2nc(-c3ccc(F)c(F)c3)cs2)c(F)c1 | True |
| N#Cc1c(N)sc2c1CCc1ccccc1-2 | True |
| O=C(N/N=C\c1cc(Cl)cc(Cl)c1O)c1ccccc1Oc1ccccc1 | False |
| N#C/C(=N/Nc1ccc(C(F)(F)F)cc1)C(=O)C1CC1 | False |
| O=S(=O)(Nc1cc(-c2cccs2)nn1-c1ccc(I)cc1)c1cccc(F)c1 | False |
| CC(NC(=S)Nc1ccc(Oc2ccc(Cl)cc2)cc1)c1ccccc1 (configuration not stated) | False |
| COc1ccc(-c2cc(NS(=O)(=O)c3cccc(F)c3)n(-c3ccc(Cl)c(Cl)c3)n2)cc1 | False |

###

Experiment: chemical genetic growth profiling, strain panel (AID 1159580);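 also: tested at 20 µM; growth read once vehicle control cultures reached saturation at 30 °C; 1 = growth at the plate median or of vehicle wells; lower values mean less growth of the strain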
Conditions: S. cerevisiae deletion strains, growth OD, locus YOR316C, strain cot1, active compounds read low
The campaign covered roughly 5,500 compounds. About 2,000 (36%) were called active. Inconclusive results (about 18%) are left out. The list shows a part of the results.
# maps each entry to its normalized growth

| compound | normalized growth |
| --- | --- |
| CC1(C)C[C@@H]2C(=O)CC[C@H]3O[C@]3(C)CC[C@H]21 | 0.992 |
| CC1=C2CCC3C(CC[C@]4(C)C(=O)CCC34)[C@@]2(C)CCC1=O (some centres undefined) | 0.98 |
| CCOC(=O)C1=C(C)NC(C)=C(C(=O)OC)C1c1cccc([N+](=O)[O-])c1 (centres undefined) | 1 |
| O=c1cc(-c2ccc(O)cc2)oc2cc(O[C@@H]3O[C@H](CO)[C@@H](O)[C@H](O)[C@H]3O[C@@H]3OC[C@](O)(CO)[C@H]3O)cc(O)c12 | 0.992 |
| Cn1cnc([N+](=O)[O-])c1Sc1ncnc2nc[nH]c12 | 0.996 |
| NCCS | 1.02 |
| Cn1c([N+](=O)[O-])cnc1COC(N)=O | 0.993 |
| O=c1ccc2cc(O[C@@H]3O[C@H](CO)[C@@H](O)[C@H](O)[C@H]3O)c(O)cc2o1 | 0.991 |
| CNC(=O)CSP(=S)(OC)OC | 1.03 |
| O=c1c(-c2ccc3c(c2)OCO3)coc2cc(O)ccc12 | 0.976 |
| COc1cc2ccc(=O)oc2c(O)c1O | 0.997 |
| C[C@]12CCC3C(CC[C@H]4C[C@@H](O)CC[C@]34C)C1CCC2=O (some centres undefined) | 0.96 |
| CCCCC/C=C\C/C=C\C/C=C\C/C=C\CCCC(=O)O | 0.982 |
| CC1(C)C=Cc2c(cc3occ(-c4ccc5c(c4)OCO5)c(=O)c3c2O)O1 | 1.02 |
| CC(=O)OC1CCC23C(=O)OC45CCC(C6=CC(=O)OC6)C4(C)CCC2C5CCC3(O)C1 (centres undefined) | 1.02 |
| O=C1OC(=O)C2C3CCC(O3)C12 (centres undefined) | 0.979 |
| COc1cc2ccc(=O)oc2cc1O | 0.994 |
| COc1c2c(cc3occ(-c4ccc5c(c4)OCO5)c(=O)c13)OC(C)(C)C=C2 | 0.986 |
| COc1ccc2c(=O)c(-c3cc4c(cc3OC)OCO4)coc2c1 | 1.02 |
| CSCCC(NC=O)C(=O)NC(CC(C)C)C(=O)NC(Cc1ccccc1)C(=O)O (centres undefined) | 1 |
| CCS(=O)(=O)CCn1c([N+](=O)[O-])cnc1C | 1.02 |
| Nc1ncnc2nc[nH]c12 | 0.995 |
| COP(=S)(OC)SCn1nnc2ccccc2c1=O | 0.971 |
| Cc1ncc([N+](=O)[O-])n1CCO | 0.992 |
